solubility kinetic values, listed per item
settings: buffer; pH 7.4; 200.0 µM

// worked examples, solubility kinetic included
O=C(O)c1ccc(NS(=O)(=O)c2cc(Cl)sc2Cl)cc1 = > 52.8 µg/mL
CSc1ncccc1C(=O)OCC(=O)NC1CC1 = > 39.9 µg/mL
CN1C(=O)/C(=C\c2ccccc2OCc2ccccc2)SC1=S = < 0.7 µg/mL
Cc1cc(NC(=O)CSc2nc3c(C)cccc3cc2C)no1 = < 0.2 µg/mL
O=C(COC(=O)c1ccc(F)cc1F)Nc1ncccn1 = > 44 µg/mL

Please find the next compound below.
I'd like to know its solubility kinetic. The compound in question is COc1ccc(N2C(=O)NC(=O)C2=O)cc1
> 33 µg/mL

###

conditions: buffer; pH 7.4; 200.0 µM
solubility kinetic values, listed per item

// worked examples, solubility kinetic included
Cc1ccc(S(=O)(=O)N2CCN(C(=O)Cn3c(=O)cnc4ccccc43)CC2)c(C)c1 = > 66.1 µg/mL
COc1ccc(Br)cc1/C=C/C(=O)NCC(=O)O = > 47.1 µg/mL
O=C(Nc1ccc(F)cc1)Nc1cccnc1 = > 34.7 µg/mL
CCOC(=O)C(=CNc1ccc(C#N)cc1)C(=O)OCC = > 43.2 µg/mL
CC(=O)c1ccc(S(=O)(=O)NCCC(=O)NC2CCN(Cc3ccccc3)CC2)cc1.O=C(O)C(=O)O = > 80 µg/mL
COC(=O)c1cc(OC)nc2ccc(Br)cc12 = < 0.6 µg/mL
COc1cccc2cc(C(=O)N3CCCCCCC3)c(=O)oc12 = > 47.3 µg/mL
Cc1cccc(C(=O)NCC(=O)OCC(=O)c2ccc(Cl)s2)c1 = > 52.8 µg/mL
COc1ccc(C(=O)NCCN2CCOCC2)c(OC)c1 = > 44.2 µg/mL
CN1C(=O)CCC(CCC(=O)O)(c2ccccc2O)C1=O (centres undefined) = > 43.7 µg/mL

I'd like to know its solubility kinetic. The molecule in question is COc1ccc(C(=O)O)cc1S(=O)(=O)NCc1ccccn1
> 48.4 µg/mL

###

conditions: buffer; pH 7.4; 200.0 µM
quantity.measured: solubility kinetic

// worked examples, solubility kinetic included
Cl.NC(N)=NC(N)=NCCc1ccccc1 = > 36.3 µg/mL
CCOC(=O)c1ccc2[nH]c3c(c2c1)CCCC3NC=O (stereo not given) = > 42.9 µg/mL
CC(=O)N(c1ccc(C)cc1)c1nc(C)cc(C)c1C#N = > 41.9 µg/mL
CCc1ccc2[nH]c(=O)c(Cc3ccccc3)c(O)c2c1 = > 41.9 µg/mL
Cc1ccc(NC(=O)CC(=O)Nc2ccc(C)c(C)c2)cc1C = < 0.3 µg/mL
Cc1ccc(S(=O)(=O)N2CCCN(C(=O)OC(C)(C)C)CC2)cc1 = > 53.2 µg/mL
Cl.O=C(Nc1ncc([N+](=O)[O-])s1)c1cccs1 = > 43.8 µg/mL
O=C(NCCN1CCCCC1)Nc1ccc(F)cc1F = > 42.5 µg/mL

I'd like to know its solubility kinetic. The molecule in question is CC1=C(C(=O)O)N2C(=O)C(NC(=O)c3ccccc3Cl)C2SC1 (stereo not given)
> 52.9 µg/mL

I'd like to know its solubility kinetic. The molecule in question is Cc1ccc(C)c(SCC(=O)N(C)C2CCS(=O)(=O)C2)c1 (stereo not given)
> 49.1 µg/mL

###

conditions: buffer; pH 7.4; 200.0 µM
solubility kinetic values, listed per item

I'd like to know its solubility kinetic. The compound in question is O=C(Cc1ccc(F)cc1)NC1CCSC1=O (stereo not given)
> 0.038 mg/mL

I'd like to know its solubility kinetic. The compound in question is CC1CNCCN1S(=O)(=O)c1cccc2cnccc12.Cl (stereo not given)
> 0.0546 mg/mL

I'd like to know its solubility kinetic. The compound in question is CCCSc1nc2ccccc2n1CC(=O)O
> 0.0375 mg/mL

I'd like to know its solubility kinetic. The compound in question is Cc1ccccc1OS(=O)(=O)c1cn(C)c(=O)n(C)c1=O
> 0.0465 mg/mL

I'd like to know its solubility kinetic. The compound in question is O=C1CN(S(=O)(=O)c2ccc([N+](=O)[O-])cc2)CC(=O)N1
> 0.0449 mg/mL

###

details: buffer; pH 7.4; 200.0 µM
Recorded solubility kinetic determines the label; the label ranges are 1: < 9 µg/mL; 2: ≥ 9 µg/mL and < 40 µg/mL; 3: ≥ 40 µg/mL

Cc1ccc(NC(=S)NCC2CCN(C(C)c3ccccc3)C2)cc1 (centres undefined) = 3

# bin lookup: classify Cc1ccc(C)c(CSC2=NCCN2C(=O)c2cccs2)c1 by its solubility kinetic
1

# bin lookup: classify O=C(NC(=S)Nc1cccnc1)c1ccccc1 by its solubility kinetic
2

# bin lookup: classify O=C(O)c1ccccc1Nc1cccc(C(F)(F)F)c1 by its solubility kinetic
3

# bin lookup: classify CC1CN(C(=O)COC(=O)[C@@H](NC(=O)c2ccccc2Cl)C(C)C)CC(C)O1 (some centres undefined) by its solubility kinetic
3

# bin lookup: classify CCOc1nc(Nc2ccc(OC)cc2)nc(N2CCOCC2)n1 by its solubility kinetic
1

# bin lookup: classify CC(=O)N/C(N)=N/c1nc(=O)c2ccccc2s1 by its solubility kinetic
1

# bin lookup: classify CCC(C)Nc1nc(N)c([N+](=O)[O-])c(NCc2ccccc2)n1 (centres undefined) by its solubility kinetic
1

# bin lookup: classify CN(CCO)CC(O)CN(c1ccccc1)c1ccccc1.Cl (centres undefined) by its solubility kinetic
3

# bin lookup: classify CN1CCC(CO)(Cc2ccccc2)CC1 by its solubility kinetic
2

# bin lookup: classify CC(C)Cc1ccc(C(C)C(=O)Nc2ncccn2)cc1 (centres undefined) by its solubility kinetic
2

# bin lookup: classify CCN1CCN(CC(=O)c2ccc(C)cc2)CC1 by its solubility kinetic
2

# bin lookup: classify CN(C)C(=O)COc1ccc(Oc2ccccc2)cc1 by its solubility kinetic
2

# bin lookup: classify CC(C)CCN1CCN(Cc2ccon2)CC1CCO (centres undefined) by its solubility kinetic
3

# bin lookup: classify O=C(Nc1nc(-c2cccs2)c(C(=O)C(F)(F)F)s1)c1ccco1 by its solubility kinetic
1

# bin lookup: classify Cc1ccccc1OCC1Cn2c(nc3c2c(=O)n(C)c(=O)n3C)O1 (centres undefined) by its solubility kinetic
3

# bin lookup: classify O=C(NC1CCCCC1)c1ccc(-n2cncn2)c([N+](=O)[O-])c1 by its solubility kinetic
3

###

conditions: buffer; pH 7.4; 200.0 µM
solubility kinetic values, listed per item

// worked examples, solubility kinetic included
Cl.OCCCNCc1ccc(-c2ccccc2)cc1 = > 41.7 µg/mL
C#CCn1cnc2c(oc3ccccc32)c1=O = > 33.6 µg/mL
O=C(COC(=O)c1ccc(O)cc1)NCCC1=CCCCC1 = > 45.5 µg/mL
COC(=O)c1ccc(C2NC(=O)CCC2[N+](=O)[O-])cc1 (stereo unspecified) = > 41.7 µg/mL
Cc1ccc(CNc2nc(C)c(C(=O)N(C)C)s2)cc1 = > 43.4 µg/mL

I'd like to know its solubility kinetic. The compound in question is Cc1ccc(S(=O)(=O)NCC2CCCO2)cc1 (stereo unspecified)
> 38.3 µg/mL

###

conditions: buffer; pH 7.4; 200.0 µM
quantity.measured: solubility kinetic

// worked examples, solubility kinetic included
Cc1cc(NC(=O)c2cccs2)no1 = > 31.2 µg/mL
CC1CCCC(C)N1C(=O)COC(=O)c1ccc([N+](=O)[O-])o1 (stereo unspecified) = > 46.5 µg/mL
O=C1CN(C(=S)NC(=O)c2ccccc2[N+](=O)[O-])CCN1 = > 46.2 µg/mL

I'd like to know its solubility kinetic. The compound in question is Br.Cc1ccc(C(=O)Cn2c(=N)n(N)c3ccccc32)cc1
> 54.2 µg/mL

I'd like to know its solubility kinetic. The compound in question is CC(=O)Cc1nsc(NC(=O)c2ccc(F)cc2)n1
> 41.9 µg/mL

I'd like to know its solubility kinetic. The compound in question is Nc1c(Cl)ncnc1NCc1cccnc1
> 35.4 µg/mL

###

solubility kinetic values, listed per item
conditions: buffer; pH 7.4; 200.0 µM

// worked examples, solubility kinetic included
NC(=O)c1ccc(NCC2CCCO2)c([N+](=O)[O-])c1 (stereo not given) = > 39.8 µg/mL
COc1ccc(C(=O)N2CCN=C2SC)cc1 = > 37.5 µg/mL
COc1ccc(CC(=O)OC(C)C(=O)Nc2ccc(S(N)(=O)=O)cc2)cc1 (stereo not given) = > 58.9 µg/mL
Cc1ccc(N2C(=O)CC(=O)NC2=O)c(C)c1 = > 34.8 µg/mL

Please find the next compound below.
I'd like to know its solubility kinetic. The compound in question is COc1ccc(NC(=O)COC(=O)c2cc(S(=O)(=O)N3CCCC3)ccc2O)cc1
> 65.2 µg/mL
